species: Rattus norvegicus; experiment: Open TG-GATES - Regimen: Single; type: toxicity, organism-based, Sprague-Dawley; set-up: regimen Single, gender Male, age 6 weeks; conditions: in vivo, po, 300 mg/kg, 24 h, tissue Plasma, route gavage, dose level Middle
Could you please report measured RALB for the items listed next?
Show the value, then the unit it is measured in.

// known answers, use as guide
- Compound: "NC(N)=Nc1nc(CSCCC(N)=NS(N)(=O)=O)cs1 [FAMOTIDINE]"
  RALB: "3.3 g/dL"
- Compound: "CCOC(=O)CCC(=O)O[C@H]1[C@H](O[C@@H]2[C@@H](C)[C@H](O[C@H]3C[C@@](C)(OC)[C@@H](O)[C@H](C)O3)[C@@H](C)C(=O)O[C@H](CC)[C@@](C)(O)[C@H](O)[C@@H](C)C(=O)[C@H](C)C[C@@]2(C)O)O[C@H](C)C[C@@H]1N(C)C [ERYTHROMYCIN ETHYLSUCCINATE]"
  RALB: "2.9 g/dL"
- Compound: "COC1=CC(=O)C[C@@H](C)[C@]12Oc1c(Cl)c(OC)cc(OC)c1C2=O [GRISEOFULVIN]"
  RALB: "3.4 g/dL"

Then there is this compound:
Briefly, RALB measured for COc1ccc2[nH]c([S+]([O-])Cc3ncc(C)c(OC)c3C)nc2c1 (centres undefined) [OMEPRAZOLE] : 3.3 g/dL

----------
species on record: Rattus norvegicus; experiment: Open TG-GATES - Regimen: Daily Repeat; type: toxicity, organism-based, Sprague-Dawley; design: regimen Daily Repeat, gender Male, age 6 weeks; conditions: in vivo, po, 1000 mg/kg, […], tissue Blood, route gavage, dose level High, time 7 day
Observed property: Plat (x10_4/uL)
Answers are plain numbers, in x10_4/uL.

// input: 6 molecules below; output: Plat for each
1. NC(N)=Nc1nc(CSCCC(N)=NS(N)(=O)=O)cs1
2. CC(C)OC(=O)C(C)(C)Oc1ccc(C(=O)c2ccc(Cl)cc2)cc1 [FENOFIBRATE]
3. CCOc1ccc(NC(=O)CC(C)O)cc1 (stereo unspecified)
4. CCOC(=O)CCC(=O)O[C@H]1[C@H](O[C@@H]2[C@@H](C)[C@H](O[C@H]3C[C@@](C)(OC)[C@@H](O)[C@H](C)O3)[C@@H](C)C(=O)O[C@H](CC)[C@@](C)(O)[C@H](O)[C@@H](C)C(=O)[C@H](C)C[C@@]2(C)O)O[C@H](C)C[C@@H]1N(C)C [ERYTHROMYCIN ETHYLSUCCINATE]
5. COc1ccc2[nH]c([S+]([O-])Cc3ncc(C)c(OC)c3C)nc2c1 (stereo unspecified)
6. COC1=CC(=O)C[C@@H](C)[C@]12Oc1c(Cl)c(OC)cc(OC)c1C2=O

Result block:
1. 122.6
2. 147.3
3. 126.9
4. 112.5
5. 171.4
6. 145.2

----------
Could you please report measured TG for the items listed next?
species on record: Rattus norvegicus; test: Open TG-GATES - Regimen: Single; assay type: toxicity, organism-based, Sprague-Dawley; set-up: regimen Single, gender Male, age 6 weeks; settings: in vivo, po, 10 mg/kg, 3 h, tissue Plasma, route gavage, dose level Low
Answers are plain numbers, in mg/dL.

// known answers, use as guide
- Compound: "CN(C)CCN(Cc1cccs1)c1ccccn1"
  Observed property: "TG"
  Assay result: 43.2
- Compound: "CC1=C(/C=C/C(C)=C/C=C/C(C)=C/CO)C(C)(C)CCC1"
  Observed property: "TG"
  Assay result: 123.4
- Compound: "CC(C)OC(=O)C(C)(C)Oc1ccc(C(=O)c2ccc(Cl)cc2)cc1 [FENOFIBRATE]"
  Observed property: "TG"
  Assay result: 43

Then there is this compound:
Briefly, TG measured for CN(C)CCCN1c2ccccc2CCc2ccc(Cl)cc21 : 78

----------
organism: Rattus norvegicus; test: Open TG-GATES - Regimen: Single; type: toxicity, organism-based, Sprague-Dawley; parameters: regimen Single, gender Male, age 6 weeks; settings: in vivo, po, 100 mg/kg, 9 h, tissue Blood, route gavage, dose level Low
Observed property: Hb

// known answers, use as guide
- Compound: "CCOC(=O)CCC(=O)O[C@H]1[C@H](O[C@@H]2[C@@H](C)[C@H](O[C@H]3C[C@@](C)(OC)[C@@H](O)[C@H](C)O3)[C@@H](C)C(=O)O[C@H](CC)[C@@](C)(O)[C@H](O)[C@@H](C)C(=O)[C@H](C)C[C@@]2(C)O)O[C@H](C)C[C@@H]1N(C)C [ERYTHROMYCIN ETHYLSUCCINATE]"
  Hb: "13.3 g/dL"
- Compound: "COC1=CC(=O)C[C@@H](C)[C@]12Oc1c(Cl)c(OC)cc(OC)c1C2=O"
  Hb: "13.2 g/dL"
- Compound: "COc1ccc2[nH]c([S+]([O-])Cc3ncc(C)c(OC)c3C)nc2c1 (centres undefined)"
  Hb: "12.9 g/dL"

Briefly, Hb measured for NC(N)=Nc1nc(CSCCC(N)=NS(N)(=O)=O)cs1 : 13.4 g/dL

----------
organism: Rattus norvegicus; assay: Open TG-GATES - Regimen: Daily Repeat; type: toxicity, organism-based, Sprague-Dawley; set-up: regimen Daily Repeat, gender Male, age 6 weeks; settings: in vivo, po, 0 mg/kg, […], tissue Blood, route gavage, dose level Control, time 7 day
Could you please report measured MCH for the items listed next?
Answers are plain numbers, in pg.

// known answers, use as guide
- Molecule: "CCCNC(=O)NS(=O)(=O)c1ccc(Cl)cc1 [CHLORPROPAMIDE]"
  Measure unit: "pg"
  MCH: 21.6
- Molecule: "CN1C(=O)CN=C(c2ccccc2)c2cc(Cl)ccc21"
  Measure unit: "pg"
  MCH: 21.8
- Molecule: "CCOc1ccc(NC(=O)CC(C)O)cc1 (stereo not drawn)"
  Measure unit: "pg"
  MCH: 20.7

// input: 5 molecules below; output: MCH for each
1. NC(N)=Nc1nc(CSCCC(N)=NS(N)(=O)=O)cs1
2. CC1=C(/C=C/C(C)=C/C=C/C(C)=C/CO)C(C)(C)CCC1
3. CN(C)CCN(Cc1cccs1)c1ccccn1
4. O=C(CCCN1CCC(O)(c2ccc(Cl)cc2)CC1)c1ccc(F)cc1
5. COC1=CC(=O)C[C@@H](C)[C@]12Oc1c(Cl)c(OC)cc(OC)c1C2=O

Result block:
1. 22.2
2. 20.9
3. 20.8
4. 21.2
5. 21.7

----------
Could you please report measured KIDNEY_L for the items listed next?
species: Rattus norvegicus; assay: Open TG-GATES - Regimen: Daily Repeat; assay type: toxicity, organism-based, Sprague-Dawley; set-up: regimen Daily Repeat, gender Male, age 6 weeks; details: in vivo, po, 300 mg/kg, […], tissue Kidney, route gavage, dose level Middle, time 7 day
One number for each entry, in g.

- Compound: "CCOC(=O)CCC(=O)O[C@H]1[C@H](O[C@@H]2[C@@H](C)[C@H](O[C@H]3C[C@@](C)(OC)[C@@H](O)[C@H](C)O3)[C@@H](C)C(=O)O[C@H](CC)[C@@](C)(O)[C@H](O)[C@@H](C)C(=O)[C@H](C)C[C@@]2(C)O)O[C@H](C)C[C@@H]1N(C)C [ERYTHROMYCIN ETHYLSUCCINATE]"
  KIDNEY_L / g: 1.1
- Compound: "CCOc1ccc(NC(=O)CC(C)O)cc1 (stereo not given)"
  KIDNEY_L / g: 1.2
- Compound: "COC1=CC(=O)C[C@@H](C)[C@]12Oc1c(Cl)c(OC)cc(OC)c1C2=O"
  KIDNEY_L / g: 1.1
- Compound: "COc1ccc2[nH]c([S+]([O-])Cc3ncc(C)c(OC)c3C)nc2c1 (stereo not given)"
  KIDNEY_L / g: 1.1

Then there is this compound:
Briefly, KIDNEY_L measured for NC(N)=Nc1nc(CSCCC(N)=NS(N)(=O)=O)cs1 : 1.2

----------
organism: Rattus norvegicus; assay: Open TG-GATES - Regimen: Daily Repeat; type: toxicity, organism-based, Sprague-Dawley; set-up: regimen Daily Repeat, gender Male, age 6 weeks; conditions: in vivo, po, 0 mg/kg, […], tissue Blood, route gavage, dose level Control, time 7 day
Observed property: Bas (%)
Give bare numbers, in %.

// known answers, use as guide
- Molecule: "O=C(CCCN1CCC(O)(c2ccc(Cl)cc2)CC1)c1ccc(F)cc1"
  Bas, %: 0
- Molecule: "CN(C)CCN(Cc1cccs1)c1ccccn1"
  Bas, %: 0

// input: 4 molecules below; output: Bas for each
1. CC1=C(/C=C/C(C)=C/C=C/C(C)=C/CO)C(C)(C)CCC1
2. COC1=CC(=O)C[C@@H](C)[C@]12Oc1c(Cl)c(OC)cc(OC)c1C2=O
3. NNC(=O)c1ccncc1
4. CCOC(=O)CCC(=O)O[C@H]1[C@H](O[C@@H]2[C@@H](C)[C@H](O[C@H]3C[C@@](C)(OC)[C@@H](O)[C@H](C)O3)[C@@H](C)C(=O)O[C@H](CC)[C@@](C)(O)[C@H](O)[C@@H](C)C(=O)[C@H](C)C[C@@]2(C)O)O[C@H](C)C[C@@H]1N(C)C [ERYTHROMYCIN ETHYLSUCCINATE]

Result block:
1: 0; 2: 0; 3: 0; 4: 0

// input: 2 molecules below; output: Bas for each
1. CCOc1ccc(NC(=O)CC(C)O)cc1 (stereo not drawn)
2. CC(C)OC(=O)C(C)(C)Oc1ccc(C(=O)c2ccc(Cl)cc2)cc1 [FENOFIBRATE]

Result block:
[0, 0]

meta.source: ChEMBL document CHEMBL3885861
